Could you please report measured melting point for the items listed next?

Worked cases, answers included:
{"columns": ["molecule", "result"],
 "data": [
  ["CN(C)c1nc(N2CCOCC2)c(F)c(N2CCN(c3ccc(Cl)cc3)CC2)n1 [Compound 113]", "152 °C"],
  ["O=Cc1c(N2CCOCC2)nc(N2CCN(c3ccccc3)CC2)nc1N1CCOCC1 [Compound 142]", "162 to 163 °C"],
  ["CN1CCN(c2nc(N3CCN(c4ccccc4F)CC3)nc(N3CCOCC3)c2F)CC1 [Compound 185]", "128 to 129 °C"],
  ["Fc1ccccc1N1CCN(c2cc(N3CCOCC3)nc(N3CCN(c4ccccc4F)CC3)n2)CC1 [Compound 59]", "98 to 99 °C"],
  ["Clc1c(N2CCOCC2)nc(N2CCN(c3ccccc3)CC2)nc1N1CCOCC1 [Compound 130]", "131 to 133 °C"],
  ["Fc1c(N2CCOCC2)nc(N2CCOCC2)nc1N1CCN(Cc2ccccc2)CC1 [Compound 90]", "108 to 111 °C"],
  ["COc1ccccc1N1CCN(c2nc(N3CCOCC3)c(F)c(N3CCOCC3)n2)CC1 [Compound 108]", "171 °C"]
]}

For the molecule shown here, Cc1cccc(N2CCN(c3nc(N4CCN(C(=O)OC(C)(C)C)CC4)nc(N4CCOCC4)c3F)CC2)c1C [Compound 177] , give the reported melting point.
81 to 82 °C

###

Could you please report measured melting point for the items listed next?

Consider the following items and state reported melting point for each.
1. CN(C)c1cc(N2CCOCC2)nc(N2CCN(c3ccccc3)CC2)n1 [Compound 2]
2. CC(=O)N1CCN(c2cc(N3CCOCC3)nc(N3CCN(c4ccccc4)CC3)n2)CC1 [Compound 54]
3. CCNc1c(N2CCOCC2)nc(N2CCN(c3ccccc3)CC2)nc1N1CCOCC1 [Compound 80]
4. Cc1cccc(N2CCN(c3nc(N4CCOCC4)cc(N4CCOCC4)n3)CC2)c1C [Compound 29]
5. Cc1c(N2CCOCC2)nc(N2CCN(c3ccccc3)CC2)nc1N1CCOCC1 [Compound 44]

1: 149 °C; 2: 171 to 172 °C; 3: 100 to 104 °C; 4: 141 °C; 5: 99 to 102 °C

###

Tested on: astrocyte/neuron co-culture
method: Brain cell damage induced by hydrogen peroxide treatment (LDH assay)
Type: cell-based
assay_conditions: Rattus norvegicus, hydrogen peroxide (250 μM), 24 hours, read-out: 50% inhibition concentration against cell damage in entire co-culture system (EC50 value)
Could you please report measured EC50 for the items listed next?
Give bare numbers, in nM.

Worked cases, answers included:
{"columns": ["compound", "unit_of_measure", "result_number"],
 "data": [
  ["COc1ccc(/C=C/c2nc(NCCN3CCNCC3)c(N)c(N3CCOCC3)n2)cc1", "nM", 4720],
  ["Fc1ccccc1N1CCN(c2nc(N3CCN(c4ccccc4)CC3)nc(N3CCOCC3)c2F)CC1", "nM", 560],
  ["Fc1c(N2CC=C(c3ccccc3)CC2)nc(N2CCOCC2)nc1N1CCOCC1", "nM", 320],
  ["CN(C)c1nc(N2CCOCC2)c(F)c(N2CCN(c3ccccc3Cl)CC2)n1", "nM", 330],
  ["CN(C)c1nc(N2CCC(Cc3ccccc3)CC2)nc(N2CCOCC2)c1N", "nM", 860]
]}

Consider the following items and state reported EC50 for each.
1. Fc1c(N2CCOCC2)nc(N2CCOCC2)nc1N1CCNC(c2ccccc2)C1 (stereo not drawn)
2. CN(C)c1cc(N2CCOCC2)nc(N2CCN(c3ccccc3)CC2)n1
3. COc1ccc(CCc2nc(N3CCOCC3)c(N)c(N3CCN(S(=O)(=O)N(C)C)CC3)n2)cc1
4. Nc1c(N2CCOCC2)nc(N2CCC(Cc3ccccc3)CC2)nc1N1CCOCC1
5. Cc1ccc(N2CCN(c3nc(N4CCOCC4)nc(N4CCN(C)CC4)c3F)CC2)cc1
6. Fc1c(N2CCOCC2)nc(N2CCN(c3ccccc3)CC2)nc1N1CCOCC1
7. COc1ccc(CCc2nc(N3CCNCC3)c(N)c(N3CCOCC3)n2)cc1

1. 680
2. 18400
3. 2260
4. 2860
5. 320
6. 600
7. 3050

Consider the following items and state reported EC50 for each.
1. Cc1ccc(N2CCN(c3nc(N4CCNCC4)nc(N4CCOCC4)c3F)CC2)cc1
2. Cc1cccc(N2CCN(c3nc(N4CCOCC4)c(F)c(N4CCOCC4)n3)CC2)c1C
3. COc1ccc(C=Cc2nc(N3CCOCC3)c(N)c(N3CCOCC3)n2)cc1
4. CNc1nc(/C=C/c2ccc(OC)cc2)nc(N2CCOCC2)c1N
5. CN1CCN(c2nc(N3CCCc4ccccc43)nc(N3CCOCC3)c2F)CC1

1. 420
2. 290
3. 8990
4. 1150
5. 280

Consider the following items and state reported EC50 for each.
1. Cc1cccc(N2CCN(c3nc(N4CCOCC4)c(F)c(N4CCN(C(=O)OC(C)(C)C)CC4)n3)CC2)c1C
2. CN1CCN(c2nc(N3CCOCC3)nc(N3CCN(c4ccccc4)CC3)c2F)CC1
3. Cc1ccccc1N1CCN(c2nc(N3CCOCC3)c(F)c(N3CCN(c4ccccc4)CC3)n2)CC1
4. c1ccc(N2CCN(c3nc(N4CCNCC4)cc(N4CCOCC4)n3)CC2)cc1
5. Cc1ccc(N2CCN(c3nc(N4CCOCC4)c(F)c(N4CCN(C(=O)OC(C)(C)C)CC4)n3)CC2)cc1

1: 340; 2: 490; 3: 300; 4: 3160; 5: 450
